Target: 20S core particle (CP) proteasome
Test: cell-based or functional assay
Non-standard residues stand in square brackets, D forms with d. dBpa = N[C@H](Cc1ccc(C(=O)c2ccccc2)cc1)C(=O)O
readoutLabel: TAS-1 (percent stimulation of 20S CP)

// solved cases for TAS-1 (percent stimulation of 20S CP) follow
INSERT INTO measurements (binder, readoutlabel, reading) VALUES
  ('cyclo(TAF[dF]A[dR]) (SMILES C[C@@H]1NC(=O)[C@H]([C@@H](C)O)NC(=O)[C@@H](CCCNC(=N)N)NC(=O)[C@H](C)NC(=O)[C@@H](Cc2ccccc2)NC(=O)[C@H](Cc2ccccc2)NC1=O) [CyPPS34]', 'TAS-1 (percent stimulation of 20S CP)', '126 % of DMSO'),
  ('cyclo(T[dL]F[dBpa]R[dA]) (SMILES CC(C)C[C@H]1NC(=O)[C@H]([C@@H](C)O)NC(=O)[C@@H](C)NC(=O)[C@H](CCCNC(=N)N)NC(=O)[C@@H](Cc2ccc(C(=O)c3ccccc3)cc2)NC(=O)[C@H](Cc2ccccc2)NC1=O) [CyPPS21]', 'TAS-1 (percent stimulation of 20S CP)', '278 % of DMSO');

Now for a further binder.
Field request: TAS-1 (percent stimulation of 20S CP) | item: cyclo(T[dI]F[dF]R[dA]) (SMILES CC[C@@H](C)[C@H]1NC(=O)[C@H]([C@@H](C)O)NC(=O)[C@@H](C)NC(=O)[C@H](CCCNC(=N)N)NC(=O)[C@@H](Cc2ccccc2)NC(=O)[C@H](Cc2ccccc2)NC1=O) [CyPPS12]
124 % of DMSO
